# measured on: recombinant alpha-glucosidase from S. cerevisiae (maltase) (Saccharomyces cerevisiae)
# Construct: purchased Sigma G0660-750UN
# Sequence (P53341 whole entry): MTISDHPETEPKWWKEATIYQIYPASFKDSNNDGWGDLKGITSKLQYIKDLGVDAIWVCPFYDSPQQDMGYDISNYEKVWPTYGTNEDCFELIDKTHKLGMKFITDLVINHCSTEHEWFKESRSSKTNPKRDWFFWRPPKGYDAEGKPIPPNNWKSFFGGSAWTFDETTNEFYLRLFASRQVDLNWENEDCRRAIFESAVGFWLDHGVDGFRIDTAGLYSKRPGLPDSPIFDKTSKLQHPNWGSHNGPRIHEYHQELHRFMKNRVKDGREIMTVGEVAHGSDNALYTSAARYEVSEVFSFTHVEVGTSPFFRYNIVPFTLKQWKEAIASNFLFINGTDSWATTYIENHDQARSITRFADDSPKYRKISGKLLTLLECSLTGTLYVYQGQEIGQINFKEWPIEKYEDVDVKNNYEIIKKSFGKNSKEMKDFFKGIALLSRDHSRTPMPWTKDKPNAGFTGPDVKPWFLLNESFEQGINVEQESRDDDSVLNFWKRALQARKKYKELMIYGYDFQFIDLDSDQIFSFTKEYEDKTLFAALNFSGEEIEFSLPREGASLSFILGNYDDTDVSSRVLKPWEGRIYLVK
# experiment summary: biochemical
# Type: biochemical
# experimental setup: Table 2; enzyme 1.6 U/ml, p-NPG 20 mM, pH 6.8, 37° C.; read-out: Inhibitory activity on α-glucosidase (IC50)
Where a SMILES comes first, the peptide text is derived from it.
Some compounds, each annotated with its measured pIC50.
Answer as the number alone; pIC50 is minus log10 of concentration in mol/L.

{"compound": "NCCCC[C@H](N)C(=O)N[C@@H](Cc1ccc(O)cc1)C(=O)O", "result number": 1.96}
{"compound": "CC[C@H](C)[C@H](N)C(=O)N[C@@H](Cc1ccc(O)cc1)C(=O)O [IY] (H-Ile-Tyr-OH; N-terminus and C-terminus assumed)", "result number": 1.91}
{"compound": "CC(C)C[C@H](NC(=O)[C@@H]1CCCN1C(=O)CN)C(=O)O [GPL] (H-Gly-Pro-Leu-OH; N-terminus and C-terminus assumed)", "result number": 2.32}

Note: attention shifts to another entry.
Challenge: Would you kindly share the measured pIC50 for NCCCC[C@H](N)C(=O)N[C@@H](Cc1c[nH]c2ccccc12)C(=O)O [KW] (H-Lys-Trp-OH; N-terminus and C-terminus assumed) ?
Response given: 1.89
